FYI, the data here is from patent US8778876B2.

- system: DEN2V NS2B-NS3pro (Dengue virus type 2, UniProt Q91H74)
- Sequence (Q91H74 entry or part of it, added parts left off): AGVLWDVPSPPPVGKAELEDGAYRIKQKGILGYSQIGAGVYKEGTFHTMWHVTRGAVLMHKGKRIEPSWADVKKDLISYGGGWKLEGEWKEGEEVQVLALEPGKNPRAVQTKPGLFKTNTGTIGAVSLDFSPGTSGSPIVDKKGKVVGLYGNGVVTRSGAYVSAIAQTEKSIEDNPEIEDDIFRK
- Sequence (Q91H74 entry or part of it partner, added parts left off): as the sequence (Q91H74 entry or part of it, added parts left off) above
- experimentNotes: Steady-state kinetics of inhibitors of DEN2V NS2B-NS3pro (Boc-GRR-AMC substrate, Dynafit)
- Format: biochemical, Dengue 2 virus
- testParameters: Denpro Ki1
pKi: −log10 of the molar value.
Listing: pKi of selected compounds
recordedMetric: pKi

molSmiles: O=[N+]([O-])c1cc(/N=N/c2ccc3cc(O)c(O)cc3c2)ccc1O
readingQualifier: =
value: 3.36
//
molSmiles: Oc1ccc2c(/N=N/c3ccc4c(c3)OCO4)ccc(O)c2c1
readingQualifier: =
value: 3.67
//
molSmiles: O=[N+]([O-])c1ccc(/N=N/c2ccc(O)c3cc(O)ccc23)c([N+](=O)[O-])c1
readingQualifier: =
value: 4.40
//
molSmiles: O=[N+]([O-])c1ccc(/N=N/c2ccc3cc(O)c(O)cc3c2)c(O)c1
readingQualifier: =
value: 4.09
//
molSmiles: O=C(Nc1ccc(O)c2ccccc12)c1ccc([N+](=O)[O-])cc1[N+](=O)[O-]
readingQualifier: >
value: 3.65
//
molSmiles: O=[N+]([O-])c1ccc(/C=N/c2ccc(O)c3ccccc23)c([N+](=O)[O-])c1
readingQualifier: =
value: 4.28
